- Organism: Rattus norvegicus
- EXPERIMENT: Inhibition of Aldehyde reductase in Sprague-Dawley albino rat at 100 uM
Active and inactive are the calls of the source. The rule behind the calls is not given here.
ENDPOINT NAME: inhibition

Sample records with inhibition:
[[record]]
molecule = "[O-][n+]1onc2cc(OCc3ccc(Cl)cc3)ccc21"
endpoint_name = "inhibition"
result = "19%"

[[record]]
molecule = "[O-][n+]1onc2cc(OCc3ccc4ccccc4c3)ccc21"
endpoint_name = "inhibition"
result = "35%"

[[record]]
molecule = "[O-][n+]1onc2cc(OCc3ccc(F)cc3)ccc21"
endpoint_name = "inhibition"
result = "inactive"

[[record]]
molecule = "[O-][n+]1onc2cc(OCc3nc4ccccc4s3)ccc21"
endpoint_name = "inhibition"
result = "38%"

[[record]]
molecule = "Cc1ccc(COc2ccc3c(c2)no[n+]3[O-])cc1"
endpoint_name = "inhibition"
result = "24%"


Q) Fill in: inhibition of `[O-][n+]1onc2cc(OCc3ccc(Br)cc3F)ccc21` is ___
A) inactive
